Tested on: morningglory
RUN DESCRIPTION: Test A preemergence
Type: in vivo, Ipomoea spp.
PARTICULARS: preemergence, 125 g ai/ha, visual injury approx. 10 days after treatment
OBSERVATION TYPE: Morningglory plant response rating (0 to 100 scale)
Number only, no unit.

{"SMILES REPR": "O=C(NC1CC1)c1cc(CCF)n(Cc2ccnc(C(F)(F)F)c2)n1", "REPORTED": 80}

// sample CCc1cc(C(=O)NC2CC2)nn1Cc1nnc(C(F)(F)F)o1 , its Morningglory plant response rating (0 to 100 scale) was 30

Documented Morningglory plant response rating (0 to 100 scale) of CCCCc1cc(C(=O)NOCC)nn1Cc1ccnc(C(F)(F)F)c1 : 0

---

Test system: rice
RUN DESCRIPTION: Test C flooded paddy test
Type: in vivo, Oryza sativa
PARTICULARS: Flood, 62 g ai/ha; scale 0 to 100 (0 no effect, 100 complete control)
Plant response rating, Rice overview

Solved cases below.
{"SMILES REPR": "CCONC(=O)c1cc(CC)n(Cc2cccc(OC(F)(F)F)c2)n1", "TARGET OF ASSAY": "rice", "Plant response rating, Rice": 0}
{"SMILES REPR": "O=C(NC1CC1)c1cc(CCF)n(Cc2ccnc(C(F)(F)F)c2)n1", "TARGET OF ASSAY": "rice", "Plant response rating, Rice": 0}

Proceeding to the next compound to report its Plant response rating, Rice.
response.value for CCCNC(=O)c1cc(CCC)n(Cc2cccc(OC(F)(F)F)c2)n1 (field: Plant response rating, Rice) = 0

---

Test system: wheat
RUN DESCRIPTION: Test A preemergence
Format: in vivo, Triticum aestivum
PARTICULARS: preemergence, 125 g ai/ha; visual injury, 0 to 100 scale, approx. 10 days
OBSERVATION TYPE: Wheat plant response rating
Just the number.

Recorded results for 6 molecules are shown here.
{"MOLECULE": "CCCNC(=O)c1cc(CC)n(Cc2cccc(C(F)(F)F)n2)n1 [Compound 88]", "OBSERVATION TYPE": "Wheat plant response rating", "REPORTED": 0}
{"MOLECULE": "Cc1cc(C(=O)NCC(F)(F)F)nn1Oc1ccnc(C(F)(F)F)c1 [Compound 79]", "OBSERVATION TYPE": "Wheat plant response rating", "REPORTED": 0}
{"MOLECULE": "CCCNC(=O)c1cc(CC)n(Cc2nc(C(F)(F)F)nn2C)n1 [Compound 109]", "OBSERVATION TYPE": "Wheat plant response rating", "REPORTED": 30}
{"MOLECULE": "CCCNC(=O)c1cc(CC)n(Cc2cc(C(F)(F)F)nn2CC)n1 [Compound 117]", "OBSERVATION TYPE": "Wheat plant response rating", "REPORTED": 0}
{"MOLECULE": "Cc1cc(C(=O)NC2CC2)nn1Oc1ccnc(C(F)(F)F)c1 [Compound 81]", "OBSERVATION TYPE": "Wheat plant response rating", "REPORTED": 0}
{"MOLECULE": "CCc1cc(C(=O)NC(C)C)nn1Cc1cc(C(F)(F)F)nn1CC [Compound 120]", "OBSERVATION TYPE": "Wheat plant response rating", "REPORTED": 0}

Notebook: CCc1cc(C(=O)NC2CC2)nn1Cc1ccnc(C(F)(F)F)c1 [Compound 76] , Wheat plant response rating read as 30

Record Cc1cc(C(=O)NCC(F)(F)F)nn1Cc1cccc(C(F)(F)F)c1 [Compound 7] , field Wheat plant response rating: 0

// field: Wheat plant response rating; key: CCc1cc(C(=O)NCC(F)(F)C(F)(F)F)nn1Cc1ccnc(C(F)(F)F)c1 [Compound 102] ; value = 0

According to the records, this molecule CCc1cc(C(=O)NC2CC2)nn1Cc1cccc(C(F)(F)F)n1 [Compound 91] displays Wheat plant response rating of 0

---

compounds and their reported Ryegrass, Italian plant response rating
Test system: ryegrass, Italian
RUN DESCRIPTION: Test C preemergence
Format: in vivo, Lolium multiflorum
PARTICULARS: preemergence, 31 g ai/ha; visual rating, scale 0 to 100 (0 no effect, 100 complete control), 13 to 15 days
Number, no unit, nothing else.

Consider the worked cases shown below.
{"SMILES REPR": "CCc1cc(C(=O)NCC(F)(F)F)nn1Cc1nc(C(F)(F)F)nn1C", "Ryegrass, Italian plant response rating": 10}
{"SMILES REPR": "CCNC(=O)c1cc(CC)n(Cc2cc(C(F)(F)F)nn2C)n1", "Ryegrass, Italian plant response rating": 5}
{"SMILES REPR": "CCCc1cc(C(=O)NC(C)C)nn1Cc1ccnc(C(F)(F)F)c1", "Ryegrass, Italian plant response rating": 5}

Measured Ryegrass, Italian plant response rating (ryegrass, Italian), entry CCCc1cc(C(=O)NC2CC2)nn1Cc1cc(C(F)(F)F)nn1C : 5

Item CCCc1cc(C(=O)NC(C)C)nn1Cc1cc(C(F)(F)F)nn1C was tested on ryegrass, Italian; the reported Ryegrass, Italian plant response rating is 65

The compound O=C(NCC(F)(F)F)c1cc(CCF)n(Cc2ccnc(C(F)(F)F)c2)n1 on ryegrass, Italian: Ryegrass, Italian plant response rating was 30

Entry CCONC(=O)c1cc(CC)n(Cc2ccnc(OC(F)F)c2)n1 : Ryegrass, Italian plant response rating on ryegrass, Italian = 15

Simply: CCCc1cc(C(=O)NC2CC2)nn1Cc1ccnc(OC(F)F)c1 , ryegrass, Italian, Ryegrass, Italian plant response rating = 60

Here CCNC(=O)c1cc(CCF)n(Cc2ccnc(C(F)(F)F)c2)n1 was tested on ryegrass, Italian, and its Ryegrass, Italian plant response rating came to 5

Item: CCOc1cc(C(=O)NCC(F)(F)F)nn1Cc1ccnc(OC(F)F)c1 | System: ryegrass, Italian | Ryegrass, Italian plant response rating: 5

---

Test system: oilseed rape
RUN DESCRIPTION: Test C preemergence
Assay type: in vivo, Brassica napus
PARTICULARS: preemergence, 125 g ai/ha; 13 to 15 days; scale 0 to 100, 0 = no effect, 100 = complete control
OBSERVATION TYPE: Plant response rating, Oilseed Rape
Please give only the number in your answer, with no unit.

Solved entries (count: 3):
{"COMPOUND": "O=C(NC1CC1)c1cc(CCF)n(Cc2ccnc(C(F)(F)F)c2)n1 [Compound 176]", "TARGET OF ASSAY": "oilseed rape", "Plant response rating, Oilseed Rape": 95}
{"COMPOUND": "O=C(NCC(F)(F)F)c1cc(CCF)n(Cc2ccnc(C(F)(F)F)c2)n1 [Compound 175]", "TARGET OF ASSAY": "oilseed rape", "Plant response rating, Oilseed Rape": 100}
{"COMPOUND": "CCCNC(=O)c1cc(OCC)n(Cc2ccnc(C(F)(F)F)c2)n1 [Compound 187]", "TARGET OF ASSAY": "oilseed rape", "Plant response rating, Oilseed Rape": 95}

Moving on to the next compound.
The compound identified as CCCc1cc(C(=O)NC2CC2)nn1Cc1cc(C(F)(F)F)nn1C [Compound 202] registered its Plant response rating, Oilseed Rape at 100

---

System: kochia
RUN DESCRIPTION: Test C postemergence
Type: in vivo, Kochia scoparia
PARTICULARS: postemergence, 250 g ai/ha; scale 0 to 100 (0 no effect, 100 complete control)
Listed next: entries and their corresponding Plant response rating, Kochia.
Answer field: number only, no words.

{"COMPOUND": "CCc1cc(C(=O)NOC(C)C)nn1Cc1ccnc(OC(F)F)c1 [Compound 126]", "OBSERVATION TYPE": "Plant response rating, Kochia", "REPORTED": 65}

Briefly, Plant response rating, Kochia measured for CCc1cc(C(=O)NCC(F)(F)F)nn1Cc1cc(C(F)(F)F)nn1C [Compound 108] : 90

Quick note, Plant response rating, Kochia for CCc1cc(C(=O)NOC(C)C)nn1Cc1cccc(OC(F)(F)F)c1 [Compound 70] landed at 70

Per the record, CCc1cc(C(=O)NCC(F)(F)F)nn1Cc1nc(C(F)(F)F)nn1C [Compound 107] has Plant response rating, Kochia of 90

---

Listing of recorded Crabgrass, Large plant response rating by entry.
System: crabgrass, large
RUN DESCRIPTION: Test A postemergence
Assay type: in vivo, Digitaria sanguinalis
PARTICULARS: Postemergence, 500 g ai/ha; 0 to 100 scale (0 no effect, 100 complete control)

{"COMPOUND": "O=C(NCC(F)(F)F)c1cc(Cl)n(Cc2cccc(C(F)(F)F)c2)n1 [Compound 170]", "REPORTED": 30}

Reported Crabgrass, Large plant response rating ( CCCCNC(=O)c1cc(Br)n(Cc2cccc(C(F)(F)F)c2)n1 [Compound 162] ) = 20

Record CCCc1cc(C(=O)NC(C)C)nn1Cc1cc(C(F)(F)F)nn1C [Compound 201] . Reported Crabgrass, Large plant response rating: 100

Record CCCc1cc(C(=O)NC(C)C)nn1Cc1ccnc(C(F)(F)F)c1 [Compound 186] . Reported Crabgrass, Large plant response rating: 90

The reported value for COCc1cc(C(=O)NC(C)C)nn1Cc1ccnc(C(F)(F)F)c1 [Compound 166] in terms of Crabgrass, Large plant response rating is 80

So for CCCCNC(=O)c1cc(CC)n(Cc2ccnc(C(F)(F)F)c2)n1 [Compound 141] , the logged Crabgrass, Large plant response rating turned out to be 90

Lab book: Crabgrass, Large plant response rating of COCc1cc(C(=O)NC2CC2)nn1Cc1ccnc(C(F)(F)F)c1 [Compound 167] noted as 80

CCOc1cc(C(=O)NCC(F)(F)F)nn1Cc1cc(C(F)(F)F)nn1C [Compound 140] has a reported Crabgrass, Large plant response rating of 90

In plain terms, O=C(NCC(F)(F)F)c1cc(Br)n(Cc2cccc(C(F)(F)F)c2)n1 [Compound 161] has a documented Crabgrass, Large plant response rating of 30

Just for reference, patent US20150105252A1 is where these values come from.
